test: cAMP Responsive Elements (CRE) small molecule agonists, cell-based qHTS assay: qHTS cell viability counter screen (AID 2060914); conditions: CRE-bla HEK293T viability, CellTiter-Glo luminescence, 5 h; series mostly up to 92.4 µM;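 also: viability read after 3 h of compound exposure; % is scaled to controls: 0 for no effect and ±100 for the full control effect; nearly all actives have a fitted effect of over 50% in size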
Inconclusive results are not listed. Activity calls are given as the source filed them. Calls follow the shape of the dose curve; as a rule, active = well fitted cell-killing curve with a large enough effect in the repeat runs; inconclusive = weak or mixed curves, or effect the other way; inactive = flat fitted curve, though single readings scatter.
QUANTITY MEASURED: activity change, negative = cytotoxicity

# count of solved cases: 2
{"columns": ["COMPOUND", "activity change, negative = cytotoxicity"],
 "data": [
  ["Clc1c(Cl)c(Cl)c(Cl)c(Cl)c1Cl", "9.47% [at 8.39 µM] (inactive)"],
  ["Brc1c(Br)c(Br)c(Oc2c(Br)c(Br)c(Br)c(Br)c2Br)c(Br)c1Br", "4.51% [at 18.9 µM] (inactive)"]
]}

Prompt line: # get_value(readout='activity change, negative = cytotoxicity', item= Brc1c(Br)c(Br)c(Br)c(Br)c1Br )
Response line: 7.31% [at 8.39 µM] (inactive)

Prompt line: // returns reported activity change, negative = cytotoxicity for input CC(=O)OCC1=C(C(=O)O)N2C(=O)[C@@H](N)[C@H]2SC1
Response line: 1.16% [at 18.9 µM] (inactive)

Prompt line: For the compound shown here, CCCCCCC(=O)CCCCCC/C=C/C[C@@H](O)[C@H](O)[C@@](N)(CO)C(=O)O , give the reported activity change, negative = cytotoxicity.
Response line: -1.02% [at 18.9 µM] (inactive)

Prompt line: What activity change, negative = cytotoxicity value was documented for this compound, CCCCCCCCCCCCN=C(N)N ?
Response line: -15.8% [at 3.27 µM] (inactive)

Prompt line: Need activity change, negative = cytotoxicity of CC1=C(C(=O)O)N2C(=O)[C@@H](N)[C@H]2SC1 , thanks.
Response line: 16% [at 18.9 µM] (inactive)

Prompt line: Using the record for Clc1cc2c(cc1Cl)Oc1cc(Cl)c(Cl)cc1O2 , report its activity change, negative = cytotoxicity.
Response line: 1.6% [at 0.349 µM] (inactive)

Prompt line: Entry under review: C[CH2][Hg][N]1C(=O)C2C(C1=O)C1(Cl)C(Cl)=C(Cl)C2(Cl)C1(Cl)Cl (centres undefined) . Reported activity change, negative = cytotoxicity?
Response line: 14.8% [at 18.9 µM] (inactive)

Taken from PubChem BioAssay (Tox21).
